Source: patent US9364479B2

- ASSAYED_TARGET: Src (Homo sapiens, UniProt P12931)
- Sequence (P12931 whole entry): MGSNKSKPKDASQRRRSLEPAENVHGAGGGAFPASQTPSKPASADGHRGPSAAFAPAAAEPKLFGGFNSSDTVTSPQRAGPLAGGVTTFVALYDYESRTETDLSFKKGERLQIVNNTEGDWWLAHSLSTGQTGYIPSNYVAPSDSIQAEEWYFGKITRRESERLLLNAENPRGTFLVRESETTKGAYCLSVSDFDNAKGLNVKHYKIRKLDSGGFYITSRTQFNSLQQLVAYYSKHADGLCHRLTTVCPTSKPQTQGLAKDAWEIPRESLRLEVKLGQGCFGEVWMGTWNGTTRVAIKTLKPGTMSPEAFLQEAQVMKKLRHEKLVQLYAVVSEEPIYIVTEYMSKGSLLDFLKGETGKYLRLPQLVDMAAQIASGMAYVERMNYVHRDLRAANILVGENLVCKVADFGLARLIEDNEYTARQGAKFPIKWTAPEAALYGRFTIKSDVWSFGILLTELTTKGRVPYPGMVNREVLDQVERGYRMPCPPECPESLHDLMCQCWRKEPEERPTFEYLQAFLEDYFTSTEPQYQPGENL
ATTRIBUTE_MEASURED: pIC50
# pIC50 is unitless: minus log10 of the molar concentration; print number only

Any idea what its pIC50 is? The molecule is `COc1cc2c(Nc3ccc(Cl)c(Cl)c3F)ncnc2cc1OC[C@@H]1C[C@@H]2CN(C)C[C@@H]2C1`
7.99

====

- ASSAYED_TARGET: InsR (Homo sapiens)
- Sequence (P06213 987-1382): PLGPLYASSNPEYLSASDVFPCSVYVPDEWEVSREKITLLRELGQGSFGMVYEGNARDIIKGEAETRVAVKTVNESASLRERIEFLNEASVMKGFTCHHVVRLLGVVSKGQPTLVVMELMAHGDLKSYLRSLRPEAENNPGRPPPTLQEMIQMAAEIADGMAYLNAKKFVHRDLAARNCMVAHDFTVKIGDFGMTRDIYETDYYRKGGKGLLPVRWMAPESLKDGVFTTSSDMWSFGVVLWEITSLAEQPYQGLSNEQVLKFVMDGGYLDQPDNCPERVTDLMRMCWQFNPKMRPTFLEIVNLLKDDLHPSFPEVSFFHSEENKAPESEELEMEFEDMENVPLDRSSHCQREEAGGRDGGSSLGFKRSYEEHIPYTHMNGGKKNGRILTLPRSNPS
ATTRIBUTE_MEASURED: IC50

Any idea what its IC50 is? The compound is COc1cc2c(Nc3ccc(Cl)c(Cl)c3F)ncnc2cc1OC[C@@H]1C[C@@H]2CN(C)C[C@@H]2C1 [XL-647]
> 26 µM
